Molecular target: recombinant human DPP-1 (Cathepsin C) (Homo sapiens)
Sequence (P53634 25-463): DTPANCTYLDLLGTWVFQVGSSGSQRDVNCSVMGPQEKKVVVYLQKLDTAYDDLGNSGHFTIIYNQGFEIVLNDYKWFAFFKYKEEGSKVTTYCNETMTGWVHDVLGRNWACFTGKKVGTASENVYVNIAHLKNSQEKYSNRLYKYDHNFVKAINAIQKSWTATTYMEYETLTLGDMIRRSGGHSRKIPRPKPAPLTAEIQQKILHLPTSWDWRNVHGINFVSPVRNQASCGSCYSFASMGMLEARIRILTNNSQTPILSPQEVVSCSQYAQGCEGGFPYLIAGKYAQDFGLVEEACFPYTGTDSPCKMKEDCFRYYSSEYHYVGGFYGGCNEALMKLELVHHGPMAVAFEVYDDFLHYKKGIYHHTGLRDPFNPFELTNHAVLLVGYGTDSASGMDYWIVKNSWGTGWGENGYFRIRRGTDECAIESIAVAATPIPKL
Experiment: DPP-1 Inhibition Assay (In Vitro), fluorogenic substrate GR-AMC
Conditions: room temperature; 0.15 nM DPP-1, 10 uM GR-AMC, pH 7.0; average where tested multiple times
Recorded pIC50 values for a group of compounds are listed next.
Worth noting: pIC50 values are minus log10 of concentrations stated in mol/L.

CC[C@H](N)C(=O)NCCCC#Cc1cc(C)ccc1C [Compound 77]    4.48

Prompt line: I'd like to know its pIC50. The compound in question is C#CC[C@H](N)C(=O)NCCCC#Cc1cccc(OC2CCNCC2)c1 [Compound 3]
Response line: 6.41

Prompt line: Then what about the compound CC[C@H](N)C(=O)NCCCC#Cc1cccc(OC)c1 [Compound 35] ?
Response line: 5.24

Prompt line: Okay, and C#CC[C@H](N)C(=O)NCCC#Cc1cccc(OC2CCNCC2)c1 [Compound 6] ?
Response line: 5.61

Prompt line: # repeat for CC[C@H](N)C(=O)NCCCC#Cc1ccc2sccc2c1 [Compound 60]
Response line: 5.22

Prompt line: What about this compound? CC[C@H](N)C(=O)NCCCC#Cc1cccc(F)c1F [Compound 102]
Response line: 5.21

Entry source: patent US8633322B2
